Molecular target: T1, biotin-labeled CD47 extracellular domain protein (CD47-ECD) (UniProt Q08722 19-139, limits assumed, biotin-labeled (sites not given))
T1 construct: extracellular domain; also called CD47 protein
T1 sequence (Q08722 19-139 limits assumed): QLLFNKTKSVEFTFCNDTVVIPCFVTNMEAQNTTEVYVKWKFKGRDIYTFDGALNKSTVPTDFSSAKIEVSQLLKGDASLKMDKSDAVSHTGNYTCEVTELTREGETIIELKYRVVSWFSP
Test: blocking ELISA, biotin-CD47-ECD on coated SIRPα-hFc; Ab 0 nM
Experimental endpoint: OD450 nm of CD47 bound to SIRPα

Quick note, OD450 nm of CD47 bound to SIRPα for 51E2F11 (antibody, V domains shown, Murine hybridoma antibody purified on protein G) VH: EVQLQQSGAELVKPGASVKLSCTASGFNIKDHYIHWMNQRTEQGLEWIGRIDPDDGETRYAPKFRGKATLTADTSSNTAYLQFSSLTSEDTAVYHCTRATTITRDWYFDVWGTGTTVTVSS VL: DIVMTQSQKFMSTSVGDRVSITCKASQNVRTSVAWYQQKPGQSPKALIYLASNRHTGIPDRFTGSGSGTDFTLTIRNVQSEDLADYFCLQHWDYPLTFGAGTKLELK landed at 2.95

The value of OD450 nm of CD47 bound to SIRPα measured for the binder 4D10B11 (antibody, V domains shown, Murine hybridoma antibody purified on protein G) VH: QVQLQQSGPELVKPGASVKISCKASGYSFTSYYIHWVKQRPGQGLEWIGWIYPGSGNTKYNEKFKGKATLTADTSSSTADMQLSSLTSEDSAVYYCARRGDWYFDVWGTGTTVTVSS VL: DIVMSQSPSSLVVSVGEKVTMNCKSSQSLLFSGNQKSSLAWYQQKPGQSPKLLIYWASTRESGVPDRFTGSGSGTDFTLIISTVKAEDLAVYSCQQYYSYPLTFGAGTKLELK turned out to be 2.84

Reported OD450 nm of CD47 bound to SIRPα for 20H4G5 (antibody, V domains shown, Murine hybridoma antibody purified on protein G) VH: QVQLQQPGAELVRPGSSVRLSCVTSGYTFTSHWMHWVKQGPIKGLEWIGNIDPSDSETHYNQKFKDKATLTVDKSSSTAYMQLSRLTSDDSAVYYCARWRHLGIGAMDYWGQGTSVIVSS VL: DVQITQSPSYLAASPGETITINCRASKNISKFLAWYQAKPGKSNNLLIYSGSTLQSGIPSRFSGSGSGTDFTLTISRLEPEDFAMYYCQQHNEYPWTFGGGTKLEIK was 2.9
